Tested on: Noggin (protein binding on small-molecule microarray)
MEASUREMENT_NOTES: small molecules binding Noggin protein – biochemical, 635/667 nm fluorescence, primary screen (AID 1095);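 also: score merges 667 nm feature fluorescence with signal to noise over triplicate slides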
CONDITION_NOTES: 635 nm fluorescence, higher = more signal
Please mark Fulfilled if the recorded composite z-score is equal to or greater than 0.02, and Not fulfilled if it falls below.

>  <LINE_NOTATION>
O=C1c2ccccc2[C@](Cc2ccccc2I)(C(=O)O)[C@H](c2ccc(CO)cc2)N1Cc1ccccc1C(F)(F)F

>  <CLASS_NAME>
Fulfilled

$$$$
>  <LINE_NOTATION>
COCCn1c(C(=O)N(C)C)cc2c1C[C@H]1CN(C(=O)c3ccccc3)[C@@](Cc3ccc(F)cc3)(C(=O)OC)[C@@H]21

>  <CLASS_NAME>
Not fulfilled

$$$$
>  <LINE_NOTATION>
CC(C)N1C(=O)c2ccccc2[C@](C)(C(=O)NC2CC2)[C@@H]1c1ccc(CO)cc1

>  <CLASS_NAME>
Fulfilled

$$$$
>  <LINE_NOTATION>
C[N+](C)(C)CCCC[C@@H]1NC(=O)[C@H]2C[C@@H](C(=O)O)[C@@H](c3cccc(OCCO)c3)N2C1=O

>  <CLASS_NAME>
Fulfilled

$$$$
>  <LINE_NOTATION>
Cc1ccc(S[C@]2(C(=O)NCCCN(C)C)CC(=O)N(C(C)C)[C@@H]2c2ccc(CO)cc2I)cc1

>  <CLASS_NAME>
Not fulfilled

$$$$
>  <LINE_NOTATION>
C=CCCN(CC#C[C@H]1Oc2ccccc2S(=O)(=O)N2CCC[C@@H]12)S(=O)(=O)c1ccc(C)cc1

>  <CLASS_NAME>
Fulfilled

$$$$
>  <LINE_NOTATION>
COc1ccc([Si](C)(C)[C@@H]2[C@@H](CCO)O[C@]3(C(=O)N(Cc4ccccc4)c4ccc(N(C=O)c5ccccc5)cc43)[C@H]2C)cc1

>  <CLASS_NAME>
Not fulfilled

$$$$

* * *

System: Inhibin beta A chain (activin A)
MEASUREMENT_NOTES: small molecules binding activin A – biochemical, small-molecule microarray, 635 nm fluorescence scan, primary screen (AID 1107);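 also: mouse activin A protein probed at 4.33 µg/mL on printed slides; score merges bound-protein fluorescence near 667 nm with spot signal-to-noise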
CONDITION_NOTES: INHBA, higher = more signal
Classify as follows. Reported composite z-score greater than or equal to 0.6: Condition met. Reported composite z-score below: Condition not met.

>  <MOLECULE>
C=C(/C(=C/C[C@@H](OC(=O)c1ccncc1)c1ccc(CO)o1)c1cc(C(=O)OC)ccc1OC)C(C)C

>  <CLASS_NAME>
Condition not met

$$$$
>  <MOLECULE>
COc1ccc([Si](C)(C)[C@@H]2[C@@H](CCn3cc([C@H](O)c4ccccc4)nn3)O[C@]3(C(=O)N(C)c4ccccc43)[C@H]2C)cc1

>  <CLASS_NAME>
Condition not met

$$$$
>  <MOLECULE>
O=c1cccc(-c2ccc3ccccc3c2)o1

>  <CLASS_NAME>
Condition met

$$$$
>  <MOLECULE>
COCCOC(=O)N1C(=O)[C@@]2(c3cc(C#Cc4ccc(OC)cc4)ccc31)[C@H](c1ccc(OCCO)cc1)N1[C@H](c3ccccc3)[C@H](c3ccccc3)OC(=O)[C@H]1[C@@H]2C(=O)N1CCc2cc(OC)c(OC)cc2C1

>  <CLASS_NAME>
Condition not met

$$$$
>  <MOLECULE>
C#C[C@H]1Oc2ccccc2S(=O)(=O)N2CCC[C@@H]12

>  <CLASS_NAME>
Condition met

$$$$
>  <MOLECULE>
[N-]=[N+]=NCc1ccccc1C[C@@]1(C(=O)NCc2ccccc2)N=C(c2ccc(OCCCO)cc2)O[C@@H]1c1ccccc1CN=[N+]=[N-]

>  <CLASS_NAME>
Condition not met

$$$$
>  <MOLECULE>
O=C1C2C=CC(C(O)c3ccc(-c4ccccc4)s3)N(Nc3ccccc3F)C2C(=O)N1c1ccccc1 (stereo not drawn)

>  <CLASS_NAME>
Condition met

$$$$
>  <MOLECULE>
COc1ccc([Si](C)(C)[C@H]2[C@H](CC(=O)N3CCC[C@H]3CO)O[C@@]3(C(=O)N(Cc4cccc(N5CCC5=O)c4)c4ccccc43)[C@@H]2C)cc1

>  <CLASS_NAME>
Condition met

$$$$
>  <MOLECULE>
COC(=O)[C@@]1(Cc2ccc(OC)cc2)[C@H]2c3cc(C(=O)N4CCCC4)n(C[C@H](O)CO)c3C[C@H]2CN1C(=O)c1ccccc1

>  <CLASS_NAME>
Condition met

$$$$
>  <MOLECULE>
CN(C)CCCC[C@@H]1NC(=O)[C@@H]2C[C@H](C(=O)NCCCCCCN)[C@H](c3ccc(O)cc3)N2C1=O

>  <CLASS_NAME>
Condition met

$$$$
>  <MOLECULE>
O[C@@H](Cc1ccccc1)[C@@H](/C=C/c1ccccc1)NCc1ccccc1Br

>  <CLASS_NAME>
Condition not met

$$$$
>  <MOLECULE>
CCOC(=O)C1=C[C@@H](C(C)(C)C)N(S(=O)(=O)c2ccc(C)cc2)[C@H]1c1ccc(Cl)c(Cl)c1

>  <CLASS_NAME>
Condition not met

$$$$
>  <MOLECULE>
COC(=O)C(CC#Cc1ccc2c(c1)[C@]1(C(=O)N2)[C@H](C(=O)N2CCCCCCC2)[C@H]2C(=O)O[C@H](c3ccccc3)[C@H](c3ccccc3)N2[C@@H]1c1ccccc1OCCO)C(=O)OC

>  <CLASS_NAME>
Condition met

$$$$
>  <MOLECULE>
COc1ccc(C(=O)Nc2cccc(CN3C(=O)[C@@]4(O[C@@H](CC(=O)N5Cc6ccccc6C[C@H]5CO)[C@H]([Si](C)(C)c5ccc(OC)cc5)[C@H]4C)c4ccccc43)c2)cc1

>  <CLASS_NAME>
Condition not met

$$$$
>  <MOLECULE>
O=C1O[C@H](c2ccccc2)[C@H](c2ccccc2)N2[C@H]1[C@@H](C(=O)N1CCCCCCC1)[C@]1(C(=O)Nc3ccc(C#CC4=CCCCC4)cc31)[C@H]2c1ccc(O)cc1

>  <CLASS_NAME>
Condition met

$$$$
>  <MOLECULE>
COc1ccc([Si](C)(C)[C@@H]2[C@@H](CCO)O[C@]3(C(=O)N(Cc4ccc(N5C(=O)c6cccc7cccc5c67)cc4)c4ccccc43)[C@H]2C)cc1

>  <CLASS_NAME>
Condition not met

$$$$
>  <MOLECULE>
Cn1c2c(c3ccccc31)C(=O)C1NC2C=CC1(C)C(=O)OCc1ccccc1 (stereo not drawn)

>  <CLASS_NAME>
Condition met

$$$$
>  <MOLECULE>
[N-]=[N+]=NCc1ccccc1C[C@]1(C(=O)NCC(O)CO)COC(c2ccc(OCCCO)cc2)=N1 (stereo partly drawn)

>  <CLASS_NAME>
Condition not met

$$$$
>  <MOLECULE>
CO[C@H]1O[C@H](CO)[C@@H](OC(=O)Nc2ccc(C(F)(F)F)cc2)[C@H](OC(=O)Nc2ccccc2)[C@@H]1OC(=O)Nc1ccccc1

>  <CLASS_NAME>
Condition not met

$$$$
>  <MOLECULE>
CN(C)CCCC[C@@H]1NC(=O)[C@@H]2C[C@H](C(=O)NCc3ccc(F)cc3)[C@H](c3cccc(OCCO)c3)N2C1=O

>  <CLASS_NAME>
Condition not met

$$$$
>  <MOLECULE>
CCOC(=O)C[C@H]1[C@H](OC(=O)c2ccccc2-c2ccccc2)[C@@H](NC(=O)c2ccc(-c3ccccc3)cc2)c2cc(OCCCO)ccc2N1C(=O)c1ccccc1

>  <CLASS_NAME>
Condition not met

$$$$
>  <MOLECULE>
O=C1OCCC=C[C@H]2OC34C=CCN(c5ccc6ccccc6c5)C(=O)[C@H]3N(CCCCCCO)C(=O)[C@@H]4C12 (stereo partly drawn)

>  <CLASS_NAME>
Condition not met

$$$$
>  <MOLECULE>
CN1C(=O)C2C=CC(C(O)C=Cc3ccc([N+](=O)[O-])cc3)N(N3CCCCC3)C2C1=O (stereo not drawn)

>  <CLASS_NAME>
Condition met

$$$$
>  <MOLECULE>
CN(C)CCCCNC(=O)[C@@H]1C[C@@H]2C(=O)N[C@@H](CCCCN)C(=O)N2[C@@H]1c1cccc(OCCO)c1

>  <CLASS_NAME>
Condition not met

$$$$
>  <MOLECULE>
Cc1c(NC(=O)/C(C#N)=C/C=C/c2ccccc2)c(=O)n(-c2ccccc2)n1C

>  <CLASS_NAME>
Condition met

$$$$
>  <MOLECULE>
CN(C)CCCC[C@@H]1NC(=O)[C@H]2C[C@@H](C(=O)NCCCCCNC(=O)CS)[C@@H](c3ccc(O)cc3)N2C1=O

>  <CLASS_NAME>
Condition not met

$$$$
>  <MOLECULE>
COCC1=C([C@H](O)CCc2ccccc2)[C@H](CO)[C@@H]2C(=O)N(Cc3ccccc3)C(=O)[C@@H]2C1

>  <CLASS_NAME>
Condition not met

$$$$

Reference for the values: PubChem BioAssay
